- ASSAY PROCEDURE: gradient 5% acetonitrile 3 min, to 50% in 2 min, to 85% in 15 min, held 3 min, 100 µL/min
- CONDITION SET: column: Zorbax Extend-C18 2.1 x 50 mm; eluents: water / acetonitrile, 0.1% formic acid
READOUT TYPE: RP-LC retention time (s)
Answer format: numeric, s implied, no suffix.

Consider the following illustrative entries.
Cc1csc(-c2ccc(N3CCN(C(=O)c4nccc5ccccc45)CC3)nc2)n1 ... 829
Cc1ccc(CNC(=O)CN2CCN(Cc3ccccc3C)C(=O)C2=O)cc1 ... 779
CCN1C(=O)c2cccnc2Sc2cc(C(=O)N3CCC(C)CC3)ccc21 ... 798
CCOc1ccc(OCC)c(NC(=O)CSc2cc(N3CCC(C(=O)NC4CC4)CC3)ncn2)c1 ... 860
O=c1c2cc(-c3cccs3)nn2ccn1CC(O)c1cccc(Cl)c1 (centres undefined) ... 924
Cc1ccc(-c2ncccc2CNC(=O)c2ccc3c(c2)OCO3)cc1 ... 646

Next up:
Q: Reported RP-LC retention time for CC1=NS(=O)(=O)N(Cc2ccccc2)C=C1C(=O)OCc1ccccc1C : what is it?
Ans: 1170

###

- ASSAY PROCEDURE: gradient 5% acetonitrile 3 min, to 50% in 2 min, to 85% in 15 min, held 3 min, 100 µL/min
- CONDITION SET: column: Zorbax Extend-C18 2.1 x 50 mm; eluents: water / acetonitrile, 0.1% formic acid
Documented RP-LC retention time across a set of molecules
Answer format: numeric, s implied, no suffix.

Consider the following illustrative entries.
O=C(CCc1nnn2c1CN(C(=O)Nc1ccccc1F)CC2)NC1CC1 ... 618
O=c1c2sccc2n(Cc2nc(-c3ccc(Br)cc3)no2)c(=O)n1Cc1ccccc1 ... 1200
CCn1cc(CCNC(=O)Nc2ccccc2OC)c2cccnc21 ... 718
Cc1cccc(NC(=O)Cn2cc(C(=O)N3CCCC3)c(=O)c3ccc(C)nc32)c1 ... 698
Cc1noc2ncnc(NCCN(C)Cc3ccccc3)c12 ... 580

Q: Reported RP-LC retention time for Cc1ccc2nc(-c3cc(Br)ccc3F)c(Nc3ccc4c(c3)OCCO4)n2c1 : what is it?
Ans: 737

Q: Reported RP-LC retention time for CNC(=O)[C@@H]1CN(C(=O)CCn2nc(C)cc2C)C[C@H]1c1n[nH]c(C)n1 : what is it?
Ans: 554

Q: Reported RP-LC retention time for Cc1ccc(NC(=O)CN2C(=O)COc3ccc(C(=O)N(C)C)cc32)nc1 : what is it?
Ans: 612

Q: Reported RP-LC retention time for Cc1cccc(OCC(=O)Nc2nnc(C3CC(=O)N(c4ccccc4)C3)o2)c1C (centres undefined) : what is it?
Ans: 726

Q: Reported RP-LC retention time for Cc1ccccc1Oc1nccn2c(=O)n(CC(=O)NCc3ccccc3)nc12 : what is it?
Ans: 797

Q: Reported RP-LC retention time for Cc1ccc(N2CCC(NC(=O)Nc3cccc(Cl)c3C)C2=O)cc1 (centres undefined) : what is it?
Ans: 909

Q: Reported RP-LC retention time for O=C(Cn1ccnc1)N1CCC(OCc2nc(C3CC3)no2)CC1 : what is it?
Ans: 582

Q: Reported RP-LC retention time for COc1cc(=O)c(C(=O)N2CCC(C(N)=O)CC2)nn1-c1ccc(C)cc1 : what is it?
Ans: 604

Q: Reported RP-LC retention time for Cc1c(Cl)cccc1Nc1c(-c2cccc(O)c2)nc2cnccn12 : what is it?
Ans: 813

Q: Reported RP-LC retention time for O=C(Nc1cccc(C(F)(F)F)c1)c1cnc(-c2ccc(F)cc2)nc1-c1ccncc1 : what is it?
Ans: 1060

Q: Reported RP-LC retention time for O=C(NCCCn1c(-c2ccncc2)nc2cccnc21)Nc1cccc(F)c1 : what is it?
Ans: 651
